Target: UniProt P21731
Sequence (P21731 whole entry): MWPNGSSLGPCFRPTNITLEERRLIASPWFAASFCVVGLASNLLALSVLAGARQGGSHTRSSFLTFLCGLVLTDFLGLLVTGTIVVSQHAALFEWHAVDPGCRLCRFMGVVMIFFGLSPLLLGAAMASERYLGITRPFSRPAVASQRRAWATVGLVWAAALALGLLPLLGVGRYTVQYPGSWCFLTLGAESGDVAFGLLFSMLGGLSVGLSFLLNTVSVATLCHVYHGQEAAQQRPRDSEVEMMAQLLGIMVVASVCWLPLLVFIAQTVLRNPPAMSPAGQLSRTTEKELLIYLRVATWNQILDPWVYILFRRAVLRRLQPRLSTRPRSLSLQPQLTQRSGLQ
Test: In vitro thromboxane A2 receptor antagonism through inhibition of U-46619 induced platelet aggregation in human whole blood
Format: functional, tissue-based
Details: read-out: pA2 (converted)
MEASURE: Kb

* O=C(O)CO/N=C(/c1cccnc1)c1cccc(CCNS(=O)(=O)c2ccc(I)cc2)c1 | 200 nM
* O=C(O)CCO/N=C(/c1cccnc1)c1cccc(CCNS(=O)(=O)c2ccc(I)cc2)c1 | 100 nM

Let us examine a further case.
The reported Kb value, UniProt P21731, for O=C(O)CCCC/C=C(/c1cccnc1)c1cccc(CCNS(=O)(=O)c2ccc(I)cc2)c1 reads 794 nM

====

Target: Thromboxane-A synthase (Homo sapiens, UniProt P24557)
Sequence (P24557 whole entry): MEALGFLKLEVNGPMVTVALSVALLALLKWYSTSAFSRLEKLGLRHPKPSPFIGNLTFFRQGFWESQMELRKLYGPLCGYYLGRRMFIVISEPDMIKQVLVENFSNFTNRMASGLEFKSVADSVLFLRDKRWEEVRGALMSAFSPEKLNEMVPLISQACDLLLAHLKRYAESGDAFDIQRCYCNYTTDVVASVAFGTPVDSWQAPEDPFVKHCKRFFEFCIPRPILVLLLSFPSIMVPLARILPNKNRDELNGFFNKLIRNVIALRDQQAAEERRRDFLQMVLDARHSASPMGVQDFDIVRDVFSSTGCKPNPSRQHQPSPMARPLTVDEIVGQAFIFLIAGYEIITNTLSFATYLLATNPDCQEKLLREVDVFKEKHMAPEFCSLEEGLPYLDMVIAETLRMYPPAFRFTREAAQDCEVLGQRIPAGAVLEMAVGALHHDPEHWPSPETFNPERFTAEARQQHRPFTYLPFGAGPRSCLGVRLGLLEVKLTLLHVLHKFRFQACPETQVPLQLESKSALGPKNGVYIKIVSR
Experiment: In vitro inhibition of collagen-induced thromboxane A2 production in human whole blood
Assay type: functional, tissue-based
Some compounds, each annotated with its measured IC50.
The reply should contain only the number, in nM.

Example cases with answers are listed next.
- O=C(O)CCCCO/N=C(/c1cccnc1)c1cccc(CCNS(=O)(=O)c2ccc(I)cc2)c1: 200
- O=C(O)CCO/N=C(/c1cccnc1)c1cccc(CCNS(=O)(=O)c2ccc(I)cc2)c1: 501

Let us examine a further case.
// IC50 lookup, compound = O=C(O)CCC/C=C(/c1cccnc1)c1cccc(CCNS(=O)(=O)c2ccccc2[N+](=O)[O-])c1 , result: 50.1

====

Target: Thromboxane-A synthase (Homo sapiens)
Test: In vitro inhibition of collagen-induced thromboxane A2 production in human whole blood
MEASURE: pIC50
Remember the convention: pIC50 equals -log10 of concentration in molar.

- O=C(O)CCC/C=C(/c1cccnc1)c1cccc(CCNS(=O)(=O)c2ccc(Cl)c(Cl)c2)c1: 7.20
- CC(C)(CNS(=O)(=O)c1ccc(I)cc1)c1cccc(/C(=N\OCCC(=O)O)c2cccnc2)c1: 6.70
- CC(C)(CNS(=O)(=O)c1ccc(I)cc1)c1cccc(/C(=C\CCCC(=O)O)c2cccnc2)c1: 7.50

// pIC50 lookup, compound = O=C(O)CCCC/C=C(/c1cccnc1)c1cccc(CCNS(=O)(=O)c2ccc(I)cc2)c1 , result: 7.70

// pIC50 lookup, compound = O=C(O)CCC/C=C(/c1cccnc1)c1cccc(CCNS(=O)(=O)c2ccc([N+](=O)[O-])cc2)c1 , result: 7.40

// pIC50 lookup, compound = O=C(O)CCC/C=C(/c1cccnc1)c1cccc(CCCNS(=O)(=O)c2ccccc2)c1 , result: 7.30

// pIC50 lookup, compound = O=C(O)CCCO/N=C(/c1cccnc1)c1cccc(CCNS(=O)(=O)c2ccc(I)cc2)c1 , result: 6.70

// pIC50 lookup, compound = O=C(O)CC/C=C(/c1cccnc1)c1cccc(CCNS(=O)(=O)c2ccccc2)c1 , result: 7.10
